The reported numbers originate from PubChem BioAssay (NCI).

Test: NCI Yeast Anticancer Drug Screen. Data for the bub3 strain (AID 167)
Details: S. cerevisiae bub3 mutant strain, at 50.0 µM, stronger effect = higher value
Experimental: Growth inhibition of yeast strains with defined genetic alterations is measured as a screen for potential anti-cancer activity. Selected strains with alterations in DNA damage repair or cell cycle control were exposed to compounds and growth inhibition was measured relative to vehicle treated controls. The strain used in this assay is bub3
The panel holds about 79,000 compounds, 15% with a hit somewhere; the sample as a whole holds those more often.
Endpoint: growth inhibition (%)
Give bare numbers, in %.

> print(dat)
                                   compound           endpoint  uom  experimental.result
1       O=C1c2ccccc2C(=O)c2c(OCCOCCO)cccc21  growth inhibition    %                 37.6
2  COc1ccc(C2c3cc4c(cc3OC(O)C2C)OCO4)cc1 (stereo not drawn)  growth inhibition    %                   97
3    COc1cc(/C=C/C(=O)c2ccc(O)c(OC)c2)ccc1O  growth inhibition    %                 56.1
4                     CCOC(=O)N1CCN(C=S)CC1  growth inhibition    %                   24
5  CC(C)c1ccc2c(c1)CC[C@H]1[C@](C)(C(=O)O)CCC[C@]21C  growth inhibition    %                 90.8
6         CN(C)C(=S)/N=c1\ssc(=S)n1Cc1ccco1  growth inhibition    %                 47.3

Each compound below has a reported value. Please supply its growth inhibition.
1. O=C(O)/C(Cl)=C(\Cl)C(=O)Nc1c(Cl)cccc1Cl
2. CCOC(=O)Cc1csc2[n+]1C(=O)/C(=C\c1cccc(Cl)c1Cl)S2
3. CCOC(=O)Cc1csc2[n+]1C(=O)/C(=C/c1ccc(OC)c(OC)c1)S2
4. CN(/N=C\c1ccc2ccccc2c1)C1=NCCCN1

1. 29.2
2. 75.8
3. 95.7
4. 99.2

Please state, for each entry, its recorded growth inhibition.
1. Cc1ccc(/C=N/NC(N)=S)cc1C
2. CSC(SC)(C(=O)O)c1cc(C)no1
3. C=CCOc1ccc(-c2ccccc2)cc1C(=O)NC

34.8
5.2
42.9
